Below, each entry is listed with its recorded relative viability.
# Tested on: NCI-H661
# Procedure summary: relative viability (nuclei count vs DMSO), 5 days (fraction); higher = more cells survive
# Condition description: first compound 0.01 µM
Please give only the number in your answer, with no unit.

Fill in: relative viability of CCN(CC)CCCCNc1ncc2cc(-c3cc(OC)cc(OC)c3)c(NC(=O)NC(C)(C)C)nc2n1 + CCNC(=O)c1noc(-c2cc(C(C)C)c(O)cc2O)c1-c1ccc(CN2CCOCC2)cc1 [Luminespib] (partner 0.01 µM) is ___
0.922

Fill in: relative viability of CCN(CC)CCCCNc1ncc2cc(-c3cc(OC)cc(OC)c3)c(NC(=O)NC(C)(C)C)nc2n1 + Nc1ncn([C@H]2C[C@H](O)[C@@H](CO)O2)c(=O)n1 [Decitabine] (partner 2 µM) is ___
0.534

---

# Test system: NCI-H2023
# Procedure summary: relative viability (nuclei count vs DMSO), 5 days (fraction); higher = more cells survive
# Condition description: first compound 0.8 µM
Below, each entry is listed with its recorded relative viability.

The following molecules have reported results that may help.
COc1nc(C)cnc1NS(=O)(=O)c1cccnc1-c1ccc(-c2nnco2)cc1 [Zibotentan] + Cc1cc(Nc2cc(N3CCN(C)CC3)nc(Sc3ccc(NC(=O)C4CC4)cc3)n2)n[nH]1 [Tozasertib] (partner 0.1 µM): 0.298
O=c1cc(-c2cccc3c2Sc2ccccc2S3)oc(N2CCOCC2)c1 + CC(=O)Nc1cccc(-n2c(=O)n(C3CC3)c(=O)c3c(Nc4ccc(I)cc4F)n(C)c(=O)c(C)c32)c1 [Trametinib] (partner 0.02 µM): 0.6
COc1nc(C)cnc1NS(=O)(=O)c1cccnc1-c1ccc(-c2nnco2)cc1 [Zibotentan] + CS(=O)(=O)CCNCc1ccc(-c2ccc3ncnc(Nc4ccc(OCc5cccc(F)c5)c(Cl)c4)c3c2)o1 [Lapatinib] (partner 2 µM): 0.651
O=c1cc(-c2cccc3c2Sc2ccccc2S3)oc(N2CCOCC2)c1 + COc1cccc2cc(-c3nc([C@H]4CC[C@H](C(=O)O)CC4)n4ncnc(N)c34)[nH]c12 [OSI-027] (partner 0.5 µM): 0.396
O=c1cc(-c2cccc3c2Sc2ccccc2S3)oc(N2CCOCC2)c1 + O=C(c1cc(Cc2n[nH]c(=O)c3ccccc23)ccc1F)N1CCN(C(=O)C2CC2)CC1 [Olaparib] (partner 8 µM): 0.435

We now examine a further molecule.
Request: relative viability, test system NCI-H2023, entry COc1nc(C)cnc1NS(=O)(=O)c1cccnc1-c1ccc(-c2nnco2)cc1 [Zibotentan] + N=C(N)NC(=N)NCCc1ccccc1 [Phenformin] (partner 250 µM)
0.416

---

Below, each entry is listed with its recorded relative viability.
# Test system: A-427
# Procedure summary: relative viability (nuclei count vs DMSO), 5 days (fraction); higher = more cells survive
# Condition description: first compound 6.325 µM
Please give only the number in your answer, with no unit.

COCC1(CO)C(=O)C2CCN1CC2 (stereo not drawn) [PRIMA-1MET] + CS(=O)(=O)CCNCc1ccc(-c2ccc3ncnc(Nc4ccc(OCc5cccc(F)c5)c(Cl)c4)c3c2)o1 [Lapatinib] (partner 2 µM): 1.02
COCC1(CO)C(=O)C2CCN1CC2 (stereo not drawn) [PRIMA-1MET] + CC1(C)CCC(c2ccc(Cl)cc2)=C(CN2CCN(c3ccc(C(=O)NS(=O)(=O)c4ccc(N[C@H](CCN5CCOCC5)CSc5ccccc5)c(S(=O)(=O)C(F)(F)F)c4)cc3)CC2)C1 [Navitoclax] (partner 0.5 µM): 0.968

We now examine a further compound.
Fill in: relative viability of COCC1(CO)C(=O)C2CCN1CC2 (stereo not drawn) [PRIMA-1MET] + O=C(CCCCCCC(=O)Nc1ccccc1)NO [Vorinostat] (partner 1 µM) is ___
0.949
